- STUDY_TARGET: WD repeat-containing protein 5 (Homo sapiens, UniProt P61964)
QUANTITY_MEASURED: Kd (nM)
Form entry: value (nM) — number only.

Recall the reported Kd of "Cc1c(F)c(N)cc(C(=O)Nc2cc(-c3ccc(N)cc3)ccc2N2CCN(C)CC2)c1Cl" on WD repeat-containing protein 5 (Homo sapiens, UniProt P61964) and write it down.
202
